- MEASURED TARGET: T1, TNFR1 (Homo sapiens, UniProt P19438)
- T1 chain: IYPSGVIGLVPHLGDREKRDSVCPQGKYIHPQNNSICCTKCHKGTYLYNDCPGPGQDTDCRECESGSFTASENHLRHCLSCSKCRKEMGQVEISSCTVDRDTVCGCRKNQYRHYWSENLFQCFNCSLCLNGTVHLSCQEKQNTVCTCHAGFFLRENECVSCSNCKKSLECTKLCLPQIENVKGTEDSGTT
- TEST DETAILS: yeast display SC50
ENDPOINT NAME: apparent Kd (screen) (nM)

- A80F (designed binder) MTLQELLREEALRRAEAEAFRYALELLAEKFPEQKEYLLDLAEEIESQIRSLSGVDVEDVRKFLDKEWAWVKELLAEHPFELAEVEAARAARLAELRAEVEAKVAA: 0.539
- L26C (designed binder) MTLQELLREEALRRAEAEAFRYALECLAEKFPEQKEYLLDLAEEIESQIRSLSGVDVEDVRKFLDKEWAWVKELLAEHPAELAEVEAARAARLAELRAEVEAKVAA: 0.49
- E29H (designed binder) MTLQELLREEALRRAEAEAFRYALELLAHKFPEQKEYLLDLAEEIESQIRSLSGVDVEDVRKFLDKEWAWVKELLAEHPAELAEVEAARAARLAELRAEVEAKVAA: 0.446
- A91K (designed binder) MTLQELLREEALRRAEAEAFRYALELLAEKFPEQKEYLLDLAEEIESQIRSLSGVDVEDVRKFLDKEWAWVKELLAEHPAELAEVEAARAKRLAELRAEVEAKVAA: 0.49
